- Tested on: TNF-α secretion
- METHOD NOTES: TNF-α secretion assay (PMA-differentiated THP-1 cells, LPS-triggered, MSD readout)
- Type: cell-based
- CONDITIONS USED: Homo sapiens, compound at 3 μM, LPS 24 h
Where a name gives a salt, the structure may show the parent alone.
MEASURED ENDPOINT: inhibition at 3 µM (%)
Report the figure in % without appending any unit label.

Which inhibition at 3 µM reading was recorded for the molecule CC(C)c1nn(CC(=O)N[C@@H]2CCCN(C)C2)c(=O)c2cc3ccsc3n12 [Example 1] ? -5.1

Which inhibition at 3 µM reading was recorded for the molecule CC(C)c1nn(CC(=O)N[C@@H]2CCCN(C3CCC3)C2)c(=O)c2cc3cc(Cl)sc3n12.O=CO [Example 10, formate] ? 3

Which inhibition at 3 µM reading was recorded for the molecule O=C(Cn1nc(C2CC2)n2c(cc3cc(Cl)sc32)c1=O)N[C@@H]1CCCN(C2CC2)C1 [Example 13] ? 5.2

Further cases:
Which inhibition at 3 µM reading was recorded for the molecule CN1CCC[C@@H](NC(=O)Cn2nc(C3CC3)n3c(cc4ccsc43)c2=O)C1 [Example 24, formate] ? 12

Which inhibition at 3 µM reading was recorded for the molecule CC(C)c1nn(CC(=O)N[C@@H]2CCCN(C)C2)c(=O)c2cc3cc(Cl)sc3n12 [Example 5, 2,2,2-trifluoroacetate] ? -18.2

Which inhibition at 3 µM reading was recorded for the molecule CC(C)c1nn(CC(=O)N[C@@H]2CCCN(C3CCC3)C2)c(=O)c2cc3cc(Br)sc3n12 [Example 31, 2,2,2-trifluoroacetate] ? 10.5

Which inhibition at 3 µM reading was recorded for the molecule O=C(Cn1nc(C2CC2)n2c(cc3ccsc32)c1=O)N[C@@H]1CCCN(C2CC2)C1 [Example 21] ? 11.7
